- target: UniProt:P46720
- Sequence (P46720 whole entry): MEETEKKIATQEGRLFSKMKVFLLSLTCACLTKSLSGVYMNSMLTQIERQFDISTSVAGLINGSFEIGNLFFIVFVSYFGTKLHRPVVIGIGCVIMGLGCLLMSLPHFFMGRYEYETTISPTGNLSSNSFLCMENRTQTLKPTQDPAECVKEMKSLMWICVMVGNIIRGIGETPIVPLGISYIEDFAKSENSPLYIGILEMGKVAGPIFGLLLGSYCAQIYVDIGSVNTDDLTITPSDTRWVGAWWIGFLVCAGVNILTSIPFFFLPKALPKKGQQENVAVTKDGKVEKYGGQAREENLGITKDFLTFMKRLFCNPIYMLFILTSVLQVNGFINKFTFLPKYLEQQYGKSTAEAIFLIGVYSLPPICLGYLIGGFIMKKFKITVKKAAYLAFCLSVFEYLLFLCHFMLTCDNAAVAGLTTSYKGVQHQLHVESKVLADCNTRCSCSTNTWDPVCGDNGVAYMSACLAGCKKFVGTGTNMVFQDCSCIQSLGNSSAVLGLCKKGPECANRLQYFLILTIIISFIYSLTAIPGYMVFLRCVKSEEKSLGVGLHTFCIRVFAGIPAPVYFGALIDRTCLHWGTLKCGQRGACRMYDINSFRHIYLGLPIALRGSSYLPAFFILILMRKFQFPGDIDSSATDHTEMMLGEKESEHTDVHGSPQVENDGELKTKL
- testDescription: TP_TRANSPORTER: inhibition of E217betaG uptake in Oatp1-expressing HeLa cells
Catalogue of pKi values
Quick note: pKi means taking -log10 of the concentration in moles per liter.

Consider the reported pKi for these compounds:
# compound, target, pKi
measured = [
    ("CC(=O)O[C@@H]1CC[C@@]2(C)[C@@H](CC[C@@H]3[C@@H]2CC[C@]2(C)C(=O)CC[C@@H]32)C1 [ANDROSTERONE ACETATE]", "UniProt:P46720", 4.12),
    ("C[C@]12C[C@H](O)[C@H]3[C@@H](CCC4=CC(=O)CC[C@@]43C)[C@@H]1CC[C@@H]2C(=O)CO [CORTICOSTERONE]", "UniProt:P46720", 5.28),
    ("C[C@]12C[C@H](O)[C@H]3[C@@H](CCC4=CC(=O)CC[C@@]43C)[C@@H]1CC[C@@H]2C(=O)COS(=O)(=O)O", "UniProt:P46720", 5.80),
    ("C#C[C@]1(OS(=O)(=O)O)CC[C@H]2[C@@H]3CCc4cc(O)ccc4[C@H]3CC[C@@]21C", "UniProt:P46720", 5.89),
    ("C[C@]12CC[C@@H]3c4ccc(O)cc4CC[C@H]3[C@@H]1C[C@@H](O)[C@@H]2O [ESTRIOL]", "UniProt:P46720", 5.01),
]

Using the record for C[C@]12CC[C@@H](O)C[C@@H]1CC[C@@H]1[C@@H]2CC[C@]2(C)C(=O)CC[C@@H]12 [ANDROSTERONE] , report its pKi.
4.97

Next compound up: "C[C@]12CC[C@@H]3c4ccc(O[C@@H]5O[C@H](C(=O)O)[C@@H](O)[C@H](O)[C@H]5O)cc4CC[C@H]3[C@@H]1CC[C@@H]2O"
5.01

Next compound up: C[C@]12CC[C@@H]3c4ccc(O)cc4CC[C@H]3[C@@H]1CCC2=O [ESTRONE]
4.80

Next compound up: C[C@]12CC[C@@H]3c4ccc(O)cc4CC[C@H]3[C@@H]1CC[C@@H]2O [ESTRADIOL]
5.33

Next compound up: "C[C@]12CC[C@@H]3c4ccc(OS(=O)(=O)O)cc4CC[C@H]3[C@@H]1CC[C@@H]2O"
5.96

Next compound up: C[C@]12CC[C@@H]3c4ccc(OS(=O)(=O)O)cc4CC[C@H]3[C@@H]1CCC2=O [ESTRONE SULFURIC ACID]
5.89

Next compound up: "C[C@]12CC[C@H]3[C@@H](CCC4=CC(=O)CC[C@@]43C)[C@@H]1CC[C@@H]2O[C@@H]1O[C@H](C(=O)O)[C@@H](O)[C@H](O)[C@H]1O"
5.42

Next compound up: "C[C@]12CC[C@@H](OS(=O)(=O)O)C[C@@H]1CC[C@@H]1[C@@H]2CC[C@]2(C)C(=O)CC[C@@H]12"
5.62

Next compound up: C[C@]12CC[C@H]3[C@@H](CCC4=CC(=O)CC[C@@]43C)[C@@H]1CC[C@@H]2O [TESTOSTERONE]
5.27

Provenance of the data: ChEMBL document CHEMBL2074098
